Each recorded value in this set is attributed to the supplement of paper PMC9170038.

We begin with a simple list: items and their reported apparent KD of MS2 coat protein.
test system: MS2 coat protein; assay: apparent KD of MS2 coat protein; designed switch direction (-1 OFF switch, 1 ON switch): 1; higher = weaker reporter binding; settings: input ligand: none
MEASURE NAME: apparent KD of MS2 coat protein (nM)

SEQUENCE CHAIN	MEASURE NAME	OUTPUT UNIT	ASSAY VALUE
AGCUAGUACCGAGGAUAUACGUACAUGAGGAUCACCCAUGUAUACAUGGUUUAAUGAGACUACAUGUAGAAGGCGGUACUAGCA [JL SSNG2 1.25] (Eterna round: R96, puzzle: Same State NG 2)	apparent KD of MS2 coat protein	nM	636
ACAUGAGAGAUAGGAUAUGUUGUACCUACAUGUGACAUGAGGAUCACCCAUGUGGUAAGUAUGAGACAGAAGGAUCAGAUAUGU [Equivalence 31 - Jieux - Same State NG 2] (Eterna round: R96, puzzle: Same State NG 2)	apparent KD of MS2 coat protein	nM	74
GCUCGCACGAUGACCCACAUGAGGAUCACCCAUGUGCUUGGGCAGGAUAUCUAGAUUAAGGAUGUAGAGAAGGGUCGAGCGAGC [SameState NG3 #28] (Eterna round: R96, puzzle: Same State NG 3)	apparent KD of MS2 coat protein	nM	243
GCUCGUAUCACAACCAACAUGAGGAUCACCCAUGUAUGUUGGUAGGAUAUCUAUAUUAAGGAUAUAGAGAAGGGCCGAACGAGC [SameState NG3 #12] (Eterna round: R96, puzzle: Same State NG 3)	apparent KD of MS2 coat protein	nM	82.3

###

system: MS2 coat protein; assay: apparent KD of MS2 coat protein; designed switch direction (-1 OFF switch, 1 ON switch): 1; higher = weaker reporter binding; details: Eterna round: R95; input ligand: microRNA oligo, concentration not stated
Group membership follows apparent KD of MS2 coat protein per the scheme low end (below 20 nM), middle (20 nM to below 100 nM), high end (100 nM or more)

SEQUENCE CHAIN	ASSIGNED CLASS
UCUUGGUUUUUGCUCGUUUUUUGUGUUGAACAUGAGGAUCACCCAUGUAUUGUACGGUCCAAUUUGAUAGUGGUCCG [JMF 28] (puzzle: Sensor for hsa-mir-208a)	low end
AAGGUGCAGGUACAGGAUAUGUUGCUCGUAACAUGAGGAUCACCCAUGUACCUAUGAGAUUAAAUGCAGAAGGGUGCACACCAAA [Mat - Same State 2 - Mod of UCT - D91] (puzzle: Same State 2)	high end
GGUAAACAUGAGGAUCACCCAUGUAAUAAUAUGGGAGGAUAUGGGAAUUAAUUAAUUAAACCAGAAGGCCUAAUGG [Mat - Same State 1 - D86] (puzzle: Same State 1)	high end
GUAAAACAUGAGGAUCACCCAUGUCAACAAAGUCGAGGAUAUGGGCAAAUAAAAUAAGAACCAGAAGGCGAAUAAU [salish99_SS1_r3_011] (puzzle: Same State 1)	high end
GGUCCAGCCUGAGCUGGACAAAAGCAUGUACAUGAGGAUCACCCAUGUUCAUGUACAAGCUUUUUGCUCGUCUUAAU [salish99_208a_r3_036] (puzzle: Sensor for hsa-mir-208a)	low end
GGAGGACAUGAGGAUCACCCAUGUGGAUGAACGCUAGGAUAUGCGUGCAGGAAGAGUGGAGCAGAAGGAGUGGGUU [JR_SS1_Sub046] (puzzle: Same State 1)	middle
UUUAGUUGCGGGCAGGAUAUGUAUUAAAAUACAUGAGGAUCACCCAUGUGCGGGUAUAACACCCGACAGAAGGGCCAAUCGCAAC [Laonerce - 6] (puzzle: Same State 2)	high end
AUUUAACAAGCUUUUUGCUCGUCUUAUAAACAUGAGGAUCACCCAUGUAAUAGCGUGAGAGUAAAUAAUUUAAUAAU [JMF 98] (puzzle: Sensor for hsa-mir-208a)	middle
AGUCCAGCAAGAGCUGGACAAAAGCAUGUACAUGAGGAUCACCCAUGUUCAUGUACAAGCUUUUUGCAAGUCAAAAG [Mat - hsa-mir-208a - Mod of JL - 73] (puzzle: Sensor for hsa-mir-208a)	middle
CGAUGAAACUAAGGAAGAAGAGUUGAAGUACAUGAGGAUCACCCAUGUCAGAGCUUUUUGCUCGUCAUGAACAGGAA [JR_SHM208a_Sub005] (puzzle: Sensor for hsa-mir-208a)	middle
UGUAAACAUGAGGAUCACCCAUGUAAUAUAAUGGGAGGAUAUCUGAAUUAAUUAAAUUAAGGAGAAGGCCUAAUGG [Mat - Same State 1 - Mod of Eli - D48] (puzzle: Same State 1)	high end
GUUUGACAUGAGGAUCACCCAUGUCAUACGGACACAGGAUAUCGUGGCCUGAAGCCGUCAUGAGAAGGGUGACCAA [Ceaza] (puzzle: Same State 1)	low end
GAGAAGAGGGACAAGGAUAUGUCAGGAGAGACAUGAGGAUCACCCAUGUAGAGGAAGAGAGAGAGACAGAAGGUGUCGAGAGCGA [JR_SS2_Sub015] (puzzle: Same State 2)	middle
CUAUCUACAGGUGUCAUUGCUCGUCUUAUACAUGAGGAUCACCCAUGUUAUAGCCCGGUGCUUGCGCUGGGCUGAUU [JL ViennaUCT Tearor mod 5] (puzzle: Sensor for hsa-mir-208a)	low end
GUAGCAUGCAGGCAGGAUAUUCAUAUUAAAACAUGAGGAUCACCCAUGUAGGCCGAAAGGCCUUGGGAGAAGGGCCACAUGCUAC [Xeonanis - 18] (puzzle: Same State 2)	high end
ACGUCGAUAUCACAGGAUAUACUCACAUCUACAUGAGGAUCACCCAUGUAGCGGUAUUCCGGUGCGUAGAAGGGUGAUGGACGAC [Same State 2 - Mod of Artece v.4] (puzzle: Same State 2)	low end
AGUCCAGCCUGAGCUGGACAAAAGCAUGUACAUGAGGAUCACCCAUGUUUAUGUACAAGCUUUUUGCUCGUCUUAAA [Zipper 52 - 12] (puzzle: Sensor for hsa-mir-208a)	low end
AACCAACAAAUAAAACAAGCGUGCUCGUCACAUGAGGAUCACCCAUGUUUAAGCGCUGUUCCUACAUCCGCAGCGCC [Inbitiar] (puzzle: Sensor for hsa-mir-208a)	middle

###

system: K4 kissing-loop RNA reporter; assay: apparent KD of K4 kissing-loop reporter; higher = weaker reporter binding; conditions: Eterna round: R107; input ligand: arginine 13.2 mM;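 note: bound reporter read as fluorescence of individual clusters on recovered sequencing chips by microscopy, with normalized cluster intensities fitted with a binding model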

SEQUENCE CHAIN	OUTPUT UNIT	apparent KD of K4 kissing-loop reporter
UAUUAAGUGACGGCCGCCACUAUGGUGAUUUAUUUGUUUGAGUGAUGUUUUGAUGUUUGAUUUUGUAGGACCGGGUUAUGUGUUA [ttttcmullin]	µM	0.641
UCUCCAGUGAUGUUGGAGACGGAUGAGGAAGGAGCGGGCACGUGCCCAGGUAGGUCGCCUCGAAAGCCCUGUAGCAUCGCGAAAC [Disoribe]	µM	0.188
CAGGUGCUGAUGCGGUGGCCGGUGGUCGUGCGAGGACCGGUACGGCCGCCACUCGCAUGAGUGAUGUUCAUGUGUCGUCGUCGUC [whbob_EX_Tryp_A_t2]	µM	0.136
UCUGGUAUAUCUGAUACCAGAGUAUAGUAUCAAUUGAAUAUGGAGUGAUGUUCCAUACAACUCCCUUGGCAGCAGAUCUUCCUCU [Same State Theophylline B GF 23]	µM	0.206
UUUAAAUAUAGUGAUGUUAUAUAACAAUGACGAGGACCGGUACGGCCGCCACUCGAGAGAGAUAAUGGUCGUUCGAAUCGAACGC [AstrosSSTryA#6]	µM	0.779
UGAUCAACAUCUGAUACCAGUCGCUCGAGUAAUCAACCGUGGCUAGUGAUGUUGGCUUUUGACCCUUGGCAGCAGAAUCGUGUCA [theeternabot_sameState_KL_Theo_B_20]	µM	0.131
UGAUACCAGACGGCCGCCACUACACCAGUCAAAGACUGGAUGUGAUGUUUGACCAGUGAUGUUGGUAGGACCGGGUCUGGUAUCU [TrypBX 5 #Palindromic #SwitchBubble #StaticStem]	µM	0.394
GCCGUACGCAUGGAUACCAGCCGACCUGAUGUUAAGCUGGUGCCGUAGUGAUGUUACGAAGGCCCUUGGCAGCCAUGCGUACGGC	µM	0.147
GUGCAGUGAUGUUGCACGAGGAAAGACGAUACCAGCCGUAAAUAAGGCCCUUGGCAGCGUAAGCUAGCAUAAAGUAUGCUAGUCC [Onarve]	µM	0.102
AAGUAAUGUAUAGAUUAUAUACAUUAAACAGAGGAUAUGCAUUAUUGCAGAAGGCUGAAUGCAGUGAUGUUGCAAUAAUUAUUUA [JR_SSFMNA_Sub002]	µM	0.19
AGCUUGGGUUCGGCCGCCACUCCACCCUUAGAAGUGAUGUUUCUCAUGCAUACGCGUCGUCAGAUGAGGACCGGGAAUGUAGUUG [theeternabot_exclusion_KL_Trp_B_24]	µM	0.444
UUAGAGAUCUCAGGAUAUCAGUGAUGUUGGUUGCCAGAUCUGAGAUAGAAUUCUAUCUCAGAUCAAUGAGAAGGGAGAUCUCAUU [AK4 Exc FMN B]	µM	0.313
AAAAUAAGCCAGUGAUGUUGGGAUCCAGAUACCAGCGACGAAAGUCGCCCUUGGCAGCUGUGGACGUACAAAAUAAGUACGUCCU	µM	0.706
GGCACUUUUGGUAGAAACCAUCUACCUCUAUAGGAUAUGCCGAAAGGCAGAAGGAUAGACCUACAGAGUGAUGUUCUGCGUGCCU	µM	0.406
UGGGAUGUUAAAGGAUAUAGCAGAUGAUACAAGAAAGUGAGUGAUGUUUAUGUAGAUGAUGAUAUGUUAGAAGGUUAACAAAACG [abcdefghijk]	µM	0.595
CCAUUCAUUUACGAUACCAGUCUAAUAUAUUUAAUCAAAACCCUCGCCGAGUGAUGUUCGGACCCUUGGCAGCGUCUGCGACAGG [cyycmullin]	µM	0.333
AACUGUCAAGGCCAACAUUACUGAGGUGAUACCAGCAUCGAAAGAUGCCCUUGGCAGCACCGACUUGCAGUGAUGUUGCAAGUAA [BrourdMod 12 - Jieux - Exclusion - Theophylline A]	µM	0.266
UAACGGCAACAAGGAUAUCCCAGUGAUGUUGGGAGAUAUUGACUAAGGAGACAUGAUAGGCAUAAUGGAGAAGGUGUGUUGGGAG [theeternabot_exclusion_KL_FMN_B_19]	µM	0.116
UCUGGAGCAUAUGAUACCAGCAGUGAGAGAGAGGAAGUAUAGUGAUGUUAUAUGAGAGAAUGCCCUUGGCAGCGUGUGUAGUGGG [SSTheophylB.M]	µM	0.146
AUUUGUUUAUGUGAUACCAGACUUUGCAGUGAUGUUGCAUUUAUUUUAGAAGAAUAGUUUGUCCCUUGGCAGCACUAUGUAUUUA [JR_SSTheophyB_Sub006]	µM	0.0982
GUGCGGCUAGUGAUGUUGGUUGCGUGGGAAGGAGCGCAGAAACAUGCAGGUAGGUCGCCCACAUCUCUGAUAAAAGAUUAAUUCA [Riares]	µM	0.254
GCUAUGGUAGGAAGGAGCGCUUAUUUAUUUUUAAGAGUGAUGUUCGAUAGUAGAUAUUUAAAGCAGGUAGGUCGCCUACUAUAGC [Arginine B K4 13]	µM	0.159
ACGCGCGCGAGUGAUGUUCGGAGCGGCUGGCAGGAUAUGCCGCAAGGCAGAAGGGUCGUGGCGCGUCCAGGGUAACCUGGACGCG [#2 Exclusion - FMN A Attempt #28 (HarryS)]	µM	0.401
